measurementTarget: T1, human MSLN-FL-his protein (human, UniProt Q13421 296-580)
T1 construct: made in HEK293E cells, purified on nickel column; also called hMSLN-FL-his; human MSLN full-length protein; not shown: His tag
T1 sequence (Q13421 other isoform, or with tags, fused parts or gaps): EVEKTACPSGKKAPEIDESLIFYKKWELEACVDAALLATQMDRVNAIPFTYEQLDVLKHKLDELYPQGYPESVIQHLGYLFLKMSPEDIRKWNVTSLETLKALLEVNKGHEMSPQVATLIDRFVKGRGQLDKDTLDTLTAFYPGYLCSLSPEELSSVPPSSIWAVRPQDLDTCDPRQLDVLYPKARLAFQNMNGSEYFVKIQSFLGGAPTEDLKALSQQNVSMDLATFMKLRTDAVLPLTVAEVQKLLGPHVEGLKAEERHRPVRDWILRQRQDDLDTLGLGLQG
protocol: competitive ELISA; row F2.16.10
Lab note - cut at 40% for competition rate: Yes if strictly below, No if not.

Input line: Criterion: competition rate strictly below 40%. Is it met by S009-F2.16.10 (antibody, human IgG1, kappa, V domains shown, human-murine chimeric antibody, human IgG1/kappa constant regions) VH: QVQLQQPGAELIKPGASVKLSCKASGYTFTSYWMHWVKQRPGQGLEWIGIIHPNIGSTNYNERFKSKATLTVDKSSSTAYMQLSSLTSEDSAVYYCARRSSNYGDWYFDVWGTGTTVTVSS VL: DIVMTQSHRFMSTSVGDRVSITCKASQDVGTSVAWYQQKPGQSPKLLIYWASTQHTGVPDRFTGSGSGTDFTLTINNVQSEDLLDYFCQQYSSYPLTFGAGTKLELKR ?
Output line: No

Input line: Criterion: competition rate strictly below 40%. Is it met by S009-F2.13.3 (antibody, human IgG1, kappa, V domains shown, human-murine chimeric antibody, human IgG1/kappa constant regions) VH: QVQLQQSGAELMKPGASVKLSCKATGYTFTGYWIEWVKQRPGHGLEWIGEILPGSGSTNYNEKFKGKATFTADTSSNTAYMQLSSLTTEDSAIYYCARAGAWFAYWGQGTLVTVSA VL: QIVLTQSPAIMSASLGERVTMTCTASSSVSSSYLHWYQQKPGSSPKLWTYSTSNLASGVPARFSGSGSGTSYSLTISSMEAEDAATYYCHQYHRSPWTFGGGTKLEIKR ?
Output line: Yes

Input line: Criterion: competition rate strictly below 40%. Is it met by S009-F2.39.3 (antibody, human IgG1, kappa, V domains shown, human-murine chimeric antibody, human IgG1/kappa constant regions) VH: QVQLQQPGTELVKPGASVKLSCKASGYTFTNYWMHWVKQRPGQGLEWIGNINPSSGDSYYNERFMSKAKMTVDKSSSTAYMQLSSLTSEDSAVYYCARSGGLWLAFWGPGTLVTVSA VL: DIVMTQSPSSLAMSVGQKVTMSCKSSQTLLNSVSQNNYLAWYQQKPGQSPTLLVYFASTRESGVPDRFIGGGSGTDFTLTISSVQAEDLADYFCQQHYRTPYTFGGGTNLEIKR ?
Output line: Yes

Input line: Criterion: competition rate strictly below 40%. Is it met by S009-F2.23.12 (antibody, human IgG1, kappa, V domains shown, human-murine chimeric antibody, human IgG1/kappa constant regions) VH: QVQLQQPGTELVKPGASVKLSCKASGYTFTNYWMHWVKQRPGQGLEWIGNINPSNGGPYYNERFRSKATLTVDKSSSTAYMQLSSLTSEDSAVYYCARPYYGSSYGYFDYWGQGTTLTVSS VL: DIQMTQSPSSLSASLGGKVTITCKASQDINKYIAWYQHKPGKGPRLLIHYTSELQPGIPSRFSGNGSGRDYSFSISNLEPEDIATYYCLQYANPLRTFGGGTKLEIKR ?
Output line: Yes

Input line: Criterion: competition rate strictly below 40%. Is it met by S009-F2.47.1 (antibody, human IgG1, kappa, V domains shown, human-murine chimeric antibody, human IgG1/kappa constant regions) VH: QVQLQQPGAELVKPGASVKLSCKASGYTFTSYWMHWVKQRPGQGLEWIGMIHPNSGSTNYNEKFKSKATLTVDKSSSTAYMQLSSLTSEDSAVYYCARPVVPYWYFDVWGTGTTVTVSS VL: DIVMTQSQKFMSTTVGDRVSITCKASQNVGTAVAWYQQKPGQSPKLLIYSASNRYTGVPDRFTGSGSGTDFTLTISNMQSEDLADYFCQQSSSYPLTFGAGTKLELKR ?
Output line: No

Input line: Criterion: competition rate strictly below 40%. Is it met by S009-F1.2.12 (antibody, human IgG1, kappa, V domains shown, human-murine chimeric antibody, human IgG1/kappa constant regions) VH: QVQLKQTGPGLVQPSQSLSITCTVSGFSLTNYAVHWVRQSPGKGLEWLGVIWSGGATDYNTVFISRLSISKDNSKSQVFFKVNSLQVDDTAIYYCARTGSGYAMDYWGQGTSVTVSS VL: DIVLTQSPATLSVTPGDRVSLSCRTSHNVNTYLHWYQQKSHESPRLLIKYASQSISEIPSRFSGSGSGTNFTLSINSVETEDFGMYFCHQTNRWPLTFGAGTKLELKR ?
Output line: Yes
